System: morningglory
Assay: Test A postemergence
Type: in vivo, Ipomoea spp.
Details: 500 g ai/ha, 0 to 100 scale where 0 is no effect and 100 is complete control
QUANTITY NAME: Plant response rating, Morningglory
Quick one: just the number, no unit, thanks!

// known answers, use as guide
N#Cc1cccc(Oc2ncc(Cl)cn2)c1-n1cnc(Br)c1    100
COc1ccc(Br)c(-n2cc(Br)cn2)c1Oc1ncc(Cl)cn1    20
N#Cc1cnc(Oc2cccc(C#N)c2-n2cc(Br)cn2)nc1    0
Brc1cnn(-c2ccccc2Oc2ncccn2)c1    50
N#Cc1cccc(Oc2ncc(Cl)cn2)c1-n1cc([N+](=O)[O-])cn1    0

The reported morningglory Plant response rating, Morningglory of O=Cc1cccc(Oc2ncc(Br)cn2)c1-n1cc(C(F)(F)F)cn1 is 0

Bench note, morningglory: N#Cc1cccc(Oc2ncc(Cl)cn2)c1-n1cc(I)cn1 , Plant response rating, Morningglory reads 100

Record O=Cc1cccc(Oc2ncc(F)cn2)c1-n1cc(C(F)(F)F)cn1 / morningglory, Plant response rating, Morningglory recorded as 10

Recorded Plant response rating, Morningglory for CON=Cc1cccc(Oc2ncc(Cl)cn2)c1-n1cc(Br)cn1 on morningglory was 70

The compound N#Cc1cccc(Oc2ncc(I)cn2)c1-n1cc(Cl)cn1 on morningglory: Plant response rating, Morningglory was 60

The measured Plant response rating, Morningglory that CCOC(=O)c1cnn(-c2c(C#N)cccc2Oc2ncc(Cl)cn2)c1 showed for morningglory is 0

Per the reported morningglory data, N#Cc1cnn(-c2c(C#N)cccc2Oc2ncc(F)cn2)c1 has Plant response rating, Morningglory of 90

----------
Test system: large (Lg) crabgrass
Experiment: Test E preemergence
Format: in vivo, Digitaria sanguinalis
Conditions: 16 g ai/ha, scale 0 to 100 (0 no effect, 100 complete control)
Catalogue of Crabgrass, Large plant response rating values
Enter a number only.

N#Cc1cccc(Oc2ncc(Br)cn2)c1-n1cc(C(F)(F)F)cn1 [Compound 59]    5

Form: compound = N#Cc1cccc(Oc2ncc(F)cn2)c1-n1cc(I)cn1 [Compound 86] ; Crabgrass, Large plant response rating = 0

Lookup result for FC(F)(F)c1cnn(-c2ccccc2Oc2ncc(Br)cn2)c1 [Compound 18] ; measured Crabgrass, Large plant response rating: 0

response.value for FCc1cccc(Oc2ncc(Cl)cn2)c1-n1cc(Cl)cn1 [Compound 250] (field: Crabgrass, Large plant response rating) = 0

----------
Tested on: lambsquarters
Assay: Test C preemergence
Type: in vivo, Chenopodium album
Settings: 16 g ai/ha, preemergence; scale 0 to 100 (0 no effect, 100 complete control)
Rule: measured Lambsquarters plant response rating below 70 gets fulfilled; anything equal to or greater than 70 gets not fulfilled.

Example cases with answers are listed next.
COc1cnn(-c2c(C#N)cccc2Oc2ncc(Cl)cn2)c1    not fulfilled
FCc1cccc(Oc2ncc(Cl)cn2)c1-n1cc(Cl)cn1    not fulfilled
Fc1cnc(Oc2cccc(C(F)F)c2-n2cc(Br)cn2)nc1    not fulfilled

Here's the next entry for you.
Q: Quick check: Lambsquarters plant response rating of CCCOc1cnn(-c2c(C#N)cccc2Oc2ncc(Cl)cn2)c1 under 70?
Ans: fulfilled

----------
Test system: corn
Assay: Test E preemergence
Format: in vivo, Zea mays
Details: 125 g ai/ha, scale 0 to 100, 0 no effect, 100 complete control
// reported Plant response rating, Corn for each item listed
Answer field: number only, no words.

Some solved entries appear below for comparison.
FC(F)(F)c1cnn(-c2ccccc2Oc2ncc(Cl)cn2)c1    20
N#Cc1cccc(Oc2ncc(Br)cn2)c1-n1cc(I)cn1    35
Fc1cccc(Oc2ncc(Cl)cn2)c1-n1cc(I)cn1    0
FC(F)(F)c1cnn(-c2ccccc2Oc2ncc(Br)cn2)c1    0

Okay, now this molecule:
Recorded Plant response rating, Corn (molecule CCOc1cnn(-c2c(C#N)cccc2Oc2ncc(F)cn2)c1 ): 30

----------
Tested on: kochia
Experiment: Test A postemergence
Assay type: in vivo, Kochia scoparia
Conditions: 125 g ai/ha, 0 to 100 scale where 0 is no effect and 100 is complete control
QUANTITY NAME: Plant response rating, Kochia
Reply: number alone, nothing else.

The reported Plant response rating, Kochia value, kochia, for CC(C)Oc1cnn(-c2c(Cl)cccc2Oc2ncc(Cl)cn2)c1 reads 0

Given the molecule CCOc1cnn(-c2c(C#N)cccc2Oc2ncc(F)cn2)c1 and test system kochia, the measured Plant response rating, Kochia is 80

Tested on kochia, the item N#Cc1cccc(Oc2ncc(F)cn2)c1-n1cc(I)cn1 showed Plant response rating, Kochia equal to 100

Readout Plant response rating, Kochia for N#Cc1cccc(Oc2ncc(Cl)cn2)c1-n1cc(OCC(F)F)cn1 , test system kochia, was 100

Record N#Cc1cnn(-c2c(C#N)cccc2Oc2ncc(I)cn2)c1 / kochia, Plant response rating, Kochia recorded as 10

Lab note: molecule FCc1cccc(Oc2ncc(F)cn2)c1-n1cc(C(F)(F)F)cn1 tested on kochia; recorded Plant response rating, Kochia was 100

----------
Consider the following molecules and their measured Plant response rating, Wheat readings.
Tested on: wheat, winter
Test: Test C postemergence
Type: in vivo, Triticum aestivum
Details: Postemergence, 62 g ai/ha; scale 0 to 100 (0 no effect, 100 complete control)
Please give only the number in your answer, with no unit.

Study these solved cases before continuing.
N#Cc1cccc(Oc2ncc(Br)cn2)c1-n1cc(I)cn1    5
FCc1cccc(Oc2ncc(Cl)cn2)c1-n1cc(Br)cn1    0
CCOc1cnn(-c2c(C#N)cccc2Oc2ncc(Cl)cn2)c1    0
CCOc1cnn(-c2c(C#N)cccc2Oc2ncc(F)cn2)c1    0
N#Cc1cn(-c2c(Br)cccc2Oc2ncc(Cl)cn2)nn1    5

Pending molecule:
The molecule CCOc1cn(-c2c(Br)cccc2Oc2ncc(Cl)cn2)nn1 showed Plant response rating, Wheat equal to 0

----------
Let's look at some compounds and their measured Plant response rating, Corn.
Tested on: corn
Test: Test A postemergence
Format: in vivo, Zea mays
Conditions: 31 g ai/ha, 0 to 100 scale, 0 no effect, 100 complete control
Please state the value as a number alone, without comment.

COc1cnn(-c2c(F)cccc2Oc2ncc(Cl)cn2)c1    0
Cc1cc(C)n(-c2ccccc2Oc2ncc(Cl)cn2)n1    0
CC(C)Cc1cn(-c2c(F)cccc2Oc2ncc(Cl)cn2)nn1    0
FC(F)(F)COc1cnn(-c2c(Br)cccc2Oc2ncc(Cl)cn2)c1    0
Fc1cccc(Oc2ncc(Cl)cn2)c1-n1cc(C2CCCC2)nn1    0

Moving on to another compound below.
The compound FCc1cccc(Oc2ncc(Br)cn2)c1-n1cc(Br)cn1 on corn: Plant response rating, Corn was 20

----------
Test system: kochia
Assay: Test A postemergence
Format: in vivo, Kochia scoparia
Conditions: 31 g ai/ha, 0 to 100 scale, 0 no effect, 100 complete control
The entries below come with measured Plant response rating, Kochia values attached.

Use these answered entries as a reference point.
N#Cc1cccc(Oc2ncc(Cl)cn2)c1-n1ccnc1    50
CC(C)Oc1cnn(-c2c(Cl)cccc2Oc2ncc(Cl)cn2)c1    0

Plant response rating, Kochia for N#Cc1cccc(Oc2ncc(Cl)cn2)c1-n1cnc(C(F)(F)F)c1 is 70

----------
Tested on: waterhemp
Assay: Test C preemergence
Assay type: in vivo, Amaranthus rudis
Details: 62 g ai/ha, preemergence; scale 0 (no effect) to 100 (complete control)
QUANTITY NAME: Waterhemp plant response rating
I only need the number, thanks.

Past entries and their recorded results:
Fc1cccc(Oc2ncc(Cl)cn2)c1-n1cc(I)cn1    98
FCc1cn(-c2c(F)cccc2Oc2ncc(Cl)cn2)nn1    100

Lab entry: waterhemp assay, compound CCOc1cn(-c2c(Br)cccc2Oc2ncc(Cl)cn2)nn1 , Waterhemp plant response rating = 100

waterhemp assay, compound N#Cc1cnn(-c2c(CF)cccc2Oc2ncc(F)cn2)c1 , recorded Waterhemp plant response rating = 100

Measured Waterhemp plant response rating for this entry CCOc1cnn(-c2c(C#N)cccc2Oc2ncc(F)cn2)c1 on waterhemp: 100

----------
Tested on: kochia
Assay: Test C postemergence
Format: in vivo, Kochia scoparia
Details: 16 g ai/ha, postemergence; 0 is no effect, 100 is complete control
Description: […]
QUANTITY NAME: Plant response rating (0 to 100), Kochia
Response field accepts a number only; no unit should be typed.

CC(=NO)c1cn(-c2c(Br)cccc2Oc2ncc(Cl)cn2)nn1 [Compound 115]    0
Clc1cnc(Oc2cccc(Br)c2-n2cc(Br)nn2)nc1 [Compound 129]    90
FCc1cn(-c2c(F)cccc2Oc2ncc(Cl)cn2)nn1 [Compound 154]    50

Input N#Cc1cn(-c2c(Br)cccc2Oc2ncc(Cl)cn2)nn1 [Compound 116] . Output Plant response rating (0 to 100), Kochia: 70

----------
In this section we review reported Dayflower, VA plant response rating values for a set of compounds.
System: dayflower
Assay: Test E preemergence
Type: in vivo, Commelina virginica
Details: 62 g ai/ha, scale 0 to 100 (0 no effect, 100 complete control)
Lab note: write the figure by itself, no unit.

# annotated cases, reported Dayflower, VA plant response rating shown
N#Cc1cnn(-c2c(CF)cccc2Oc2ncc(F)cn2)c1    65
N#Cc1cnn(-c2c(C#N)cccc2Oc2ncc(F)cn2)c1    20
FC(F)(F)COc1cnn(-c2ccccc2Oc2ncc(Cl)cn2)c1    30
FC(F)(F)c1cnn(-c2c(Cl)cccc2Oc2ncc(Cl)cn2)c1    65
N#Cc1cccc(Oc2ncc(F)cn2)c1-n1cc(Cl)cn1    25

Consider the record given below.
// recorded Dayflower, VA plant response rating for FC(F)(F)c1cnn(-c2ccccc2Oc2ncc(Cl)cn2)c1 : 35
